Reference source: patent US20250241905A1

# ASSAYED_TARGET: human 3β-HSD1
# Sequence (P14060 2-373 limits assumed): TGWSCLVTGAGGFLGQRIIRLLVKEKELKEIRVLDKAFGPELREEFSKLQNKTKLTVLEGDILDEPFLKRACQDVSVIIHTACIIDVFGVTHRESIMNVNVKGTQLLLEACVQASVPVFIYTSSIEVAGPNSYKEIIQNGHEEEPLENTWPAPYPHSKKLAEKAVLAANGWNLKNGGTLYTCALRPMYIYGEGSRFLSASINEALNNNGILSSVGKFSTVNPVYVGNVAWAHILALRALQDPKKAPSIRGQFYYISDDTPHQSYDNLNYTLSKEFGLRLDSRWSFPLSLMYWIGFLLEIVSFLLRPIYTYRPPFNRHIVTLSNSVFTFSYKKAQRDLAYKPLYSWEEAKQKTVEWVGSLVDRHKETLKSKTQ
# ASSAY_PROTOCOL: 3β-HSD1 inhibition, colorimetric NADH detection assay
# Type: biochemical
# EXPERIMENTAL_CONDITIONS: purified recombinant human 3β-HSD1, 50 μM DHEA, 2 mM NAD+, 1 hour, room temperature, duplicate 10-point CRC; read-out: IC50 (nM), in vitro NADH inhibition
MEASURED_PROPERTY: log10 IC50 (log10 of the value in nM)
Field: value | Transform: log10 | Quantity: IC50 | Unit: nM

Asked: Requested read-out log10 IC50, target or system human 3β-HSD1, entry `C[C@@]1(Cc2ccccc2)CCc2nc(-c3cc(F)c(O)c(F)c3)ccc2C1=O`
Given back: 1.74

Asked: Cool, now COC1(c2ncco2)CCCc2nc(-c3cc(F)c(O)c(F)c3)ccc21 (stereo not drawn)
Given back: 2.00

Asked: Cool, now Oc1c(F)cc(-c2ccc3c(n2)CCCC3(O)c2cccnc2)cc1F (stereo not drawn)
Given back: 1.83

Asked: Cool, now CC1(CC(F)(F)F)CCc2nc(-c3cc(F)c(O)c(F)c3)ccc2C1=O (stereo not drawn)
Given back: 2.27

Asked: Cool, now Oc1c(F)cc(-c2ccc3c(n2)CCCC3O)cc1F (stereo not drawn)
Given back: 2.87

Asked: Cool, now CC1CCc2nc(-c3cc(F)c(O)c(F)c3)ccc2C1=O (stereo not drawn)
Given back: 1.81

---

Can you tell me IC50 for the items I'm about to list?
# ASSAYED_TARGET: human 3β-HSD1
# ASSAY_PROTOCOL: 3β-HSD1 inhibition, colorimetric NADH detection assay
# Assay type: biochemical
# EXPERIMENTAL_CONDITIONS: purified recombinant human 3β-HSD1, 50 μM DHEA, 2 mM NAD+, 1 hour, room temperature, duplicate 10-point CRC; read-out: IC50 (nM), in vitro NADH inhibition
Answer with a number only, understood to be in nM.

Asked: // IC50 lookup, key: COC1CCCc2nc(-c3cc(F)c(O)c(F)c3)ccc21 (stereo not drawn)
Given back: 204

Asked: Cool, now CC1(C#N)CCc2nc(-c3cc(F)c(O)c(F)c3)ccc2C1=O (stereo not drawn)
Given back: 92

Asked: Cool, now `CCN1CC(C)(C)C(=O)c2ccc(-c3cc(F)c(O)c(F)c3)nc21`
Given back: 326

Asked: Cool, now CC1(C)CCc2nc(-c3cc(F)c(O)c(F)c3)ccc2C1O (stereo not drawn)
Given back: 2560

Asked: Cool, now CC1(F)CCc2nc(-c3cc(F)c(O)c(F)c3)ccc2C1=O (stereo not drawn)
Given back: 42

Asked: Cool, now `CCc1cc(-c2cc(F)c(O)c(F)c2)nc2c1C(=O)CCC2`
Given back: 1280

Asked: Cool, now `CC1(C)CCCc2nc(-c3cc(F)c(O)c(F)c3)ccc2C1=O`
Given back: 292

Asked: Cool, now `CC1(C)CCc2nc(-c3ccc(O)c(Cl)c3)ccc2C1=O`
Given back: 26

Asked: Cool, now CC1(C)CCc2nc(-c3cc(F)c(O)c(F)c3)ccc2C1(O)Cc1ccccc1 (stereo not drawn)
Given back: 227

Asked: Cool, now `O=C1c2ccc(-c3cc(F)c(O)c(F)c3)nc2CCC12COC2`
Given back: 370

Asked: Cool, now `CC1(C)CNc2nc(-c3cc(F)c(O)c(F)c3)ccc2C1=O`
Given back: 470

Asked: Cool, now CC1(C(F)(F)C(F)(F)F)CCc2nc(-c3cc(F)c(O)c(F)c3)ccc2C1=O (stereo not drawn)
Given back: 78
